Cited source for all entries: paper PMC4133103

Test System: Dpo4•DNA binary complex (Saccharolobus solfataricus, UniProt Q97W02)
Assay Remarks: Substrate specificity assay
Assay type: biochemical, Sulfolobus solfataricus
Run Conditions: DNA substrate 19/26-mer-dG^C8-N-ABA; efficiency/sum of efficiencies × 100
Could you please report measured Probability for the items listed next?

// Probability lookup, molecule = Nc1nc2c(ncn2[C@H]2C[C@H](O)[C@@H](COP(=O)(O)OP(=O)(O)OP(=O)(O)O)O2)c(=O)[nH]1 , result: 99.82

// Probability lookup, molecule = Cc1cn([C@H]2C[C@H](O)[C@@H](COP(=O)(O)OP(=O)(O)OP(=O)(O)O)O2)c(=O)[nH]c1=O , result: 0.05

// Probability lookup, molecule = Nc1ccn([C@H]2C[C@H](O)[C@@H](COP(=O)(O)OP(=O)(O)OP(=O)(O)O)O2)c(=O)n1 , result: 0.06

// Probability lookup, molecule = Nc1ncnc2c1ncn2[C@H]1C[C@H](O)[C@@H](COP(=O)(O)OP(=O)(O)OP(=O)(O)O)O1 , result: 0.07

* * *

Could you please report measured Efficiency Ratio (kp/Kd, dNTP)control/(kp/Kd, dNTP)damaged for the items listed next?
Test System: Dpo4•DNA binary complex (Saccharolobus solfataricus, UniProt Q97W02)
Assay Remarks: Substrate specificity assay
Type: biochemical, Sulfolobus solfataricus
Run Conditions: DNA substrate 22/26-mer-dG^C8-N-ABA vs control 22/26-mer
I'd appreciate a reply containing only the number, no unit.

// Efficiency Ratio (kp/Kd, dNTP)control/(kp/Kd, dNTP)damaged lookup, compound = Nc1nc2c(ncn2[C@H]2C[C@H](O)[C@@H](COP(=O)(O)OP(=O)(O)OP(=O)(O)O)O2)c(=O)[nH]1 , result: 6.5

// Efficiency Ratio (kp/Kd, dNTP)control/(kp/Kd, dNTP)damaged lookup, compound = Cc1cn([C@H]2C[C@H](O)[C@@H](COP(=O)(O)OP(=O)(O)OP(=O)(O)O)O2)c(=O)[nH]c1=O , result: 5.0

// Efficiency Ratio (kp/Kd, dNTP)control/(kp/Kd, dNTP)damaged lookup, compound = Nc1ccn([C@H]2C[C@H](O)[C@@H](COP(=O)(O)OP(=O)(O)OP(=O)(O)O)O2)c(=O)n1 , result: 11

// Efficiency Ratio (kp/Kd, dNTP)control/(kp/Kd, dNTP)damaged lookup, compound = Nc1ncnc2c1ncn2[C@H]1C[C@H](O)[C@@H](COP(=O)(O)OP(=O)(O)OP(=O)(O)O)O1 , result: 0.38

* * *

Could you please report measured (kp/Kd, dNTP)damaged for the items listed next?
Test System: Dpo4•DNA binary complex (Saccharolobus solfataricus, UniProt Q97W02)
Assay Remarks: Substrate specificity assay
Format: biochemical, Sulfolobus solfataricus
Run Conditions: DNA substrate 20/26-mer-dG^C8-N-ABA (pause site)
Give just the numeric value; M⁻¹ s⁻¹ need not be written.

Form field (kp/Kd, dNTP)damaged for item Nc1ccn([C@H]2C[C@H](O)[C@@H](COP(=O)(O)OP(=O)(O)OP(=O)(O)O)O2)c(=O)n1 on Dpo4•DNA binary complex (Saccharolobus solfataricus, UniProt Q97W02): 490

Form field (kp/Kd, dNTP)damaged for item Nc1nc2c(ncn2[C@H]2C[C@H](O)[C@@H](COP(=O)(O)OP(=O)(O)OP(=O)(O)O)O2)c(=O)[nH]1 on Dpo4•DNA binary complex (Saccharolobus solfataricus, UniProt Q97W02): 0.68

Form field (kp/Kd, dNTP)damaged for item Nc1ncnc2c1ncn2[C@H]1C[C@H](O)[C@@H](COP(=O)(O)OP(=O)(O)OP(=O)(O)O)O1 on Dpo4•DNA binary complex (Saccharolobus solfataricus, UniProt Q97W02): 3

Form field (kp/Kd, dNTP)damaged for item Cc1cn([C@H]2C[C@H](O)[C@@H](COP(=O)(O)OP(=O)(O)OP(=O)(O)O)O2)c(=O)[nH]c1=O on Dpo4•DNA binary complex (Saccharolobus solfataricus, UniProt Q97W02): 1.6

* * *

Test System: Dpo4•DNA binary complex (Saccharolobus solfataricus, UniProt Q97W02)
Assay Remarks: Substrate specificity assay
Format: biochemical, Sulfolobus solfataricus
Run Conditions: DNA substrate 22/26-mer-dG^C8-N-ABA; efficiency/sum of efficiencies × 100
Could you please report measured Probability for the items listed next?

// Probability lookup, compound = Nc1ncnc2c1ncn2[C@H]1C[C@H](O)[C@@H](COP(=O)(O)OP(=O)(O)OP(=O)(O)O)O1 [dATP] , result: 0.34

// Probability lookup, compound = Nc1nc2c(ncn2[C@H]2C[C@H](O)[C@@H](COP(=O)(O)OP(=O)(O)OP(=O)(O)O)O2)c(=O)[nH]1 [dGTP] , result: 0.04

// Probability lookup, compound = Cc1cn([C@H]2C[C@H](O)[C@@H](COP(=O)(O)OP(=O)(O)OP(=O)(O)O)O2)c(=O)[nH]c1=O [dTTP] , result: 0.07

// Probability lookup, compound = Nc1ccn([C@H]2C[C@H](O)[C@@H](COP(=O)(O)OP(=O)(O)OP(=O)(O)O)O2)c(=O)n1 [dCTP] , result: 99.55

* * *

Could you please report measured (kp/Kd, dNTP)damaged for the items listed next?
Test System: Dpo4•DNA binary complex (Saccharolobus solfataricus, UniProt Q97W02)
Sequence (Q97W02 1-352): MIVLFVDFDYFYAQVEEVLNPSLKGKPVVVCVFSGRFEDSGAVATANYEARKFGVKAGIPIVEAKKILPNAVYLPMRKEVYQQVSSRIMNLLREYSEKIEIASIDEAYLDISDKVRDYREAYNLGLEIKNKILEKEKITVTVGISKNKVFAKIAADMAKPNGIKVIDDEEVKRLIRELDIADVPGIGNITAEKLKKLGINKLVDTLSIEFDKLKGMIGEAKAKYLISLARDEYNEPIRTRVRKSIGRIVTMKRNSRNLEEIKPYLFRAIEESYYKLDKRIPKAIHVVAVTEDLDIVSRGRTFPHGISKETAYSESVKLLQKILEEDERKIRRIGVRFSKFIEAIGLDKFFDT
Assay Remarks: Substrate specificity assay
Type: biochemical, Sulfolobus solfataricus
Run Conditions: DNA substrate 18/26-mer-dG^C8-N-ABA
Give just the numeric value; µM⁻¹ s⁻¹ need not be written.

Form field (kp/Kd, dNTP)damaged for item Cc1cn([C@H]2C[C@H](O)[C@@H](COP(=O)(O)OP(=O)(O)OP(=O)(O)O)O2)c(=O)[nH]c1=O on Dpo4•DNA binary complex (Saccharolobus solfataricus, UniProt Q97W02): 1.6e-05

Form field (kp/Kd, dNTP)damaged for item Nc1ccn([C@H]2C[C@H](O)[C@@H](COP(=O)(O)OP(=O)(O)OP(=O)(O)O)O2)c(=O)n1 on Dpo4•DNA binary complex (Saccharolobus solfataricus, UniProt Q97W02): 0.088

Form field (kp/Kd, dNTP)damaged for item Nc1nc2c(ncn2[C@H]2C[C@H](O)[C@@H](COP(=O)(O)OP(=O)(O)OP(=O)(O)O)O2)c(=O)[nH]1 on Dpo4•DNA binary complex (Saccharolobus solfataricus, UniProt Q97W02): 1.8e-05

Form field (kp/Kd, dNTP)damaged for item Nc1ncnc2c1ncn2[C@H]1C[C@H](O)[C@@H](COP(=O)(O)OP(=O)(O)OP(=O)(O)O)O1 on Dpo4•DNA binary complex (Saccharolobus solfataricus, UniProt Q97W02): 9.1e-06

* * *

Could you please report measured (kp/Kd, dNTP)damaged for the items listed next?
Test System: Dpo4•DNA binary complex (Saccharolobus solfataricus, UniProt Q97W02)
Sequence (Q97W02 1-352): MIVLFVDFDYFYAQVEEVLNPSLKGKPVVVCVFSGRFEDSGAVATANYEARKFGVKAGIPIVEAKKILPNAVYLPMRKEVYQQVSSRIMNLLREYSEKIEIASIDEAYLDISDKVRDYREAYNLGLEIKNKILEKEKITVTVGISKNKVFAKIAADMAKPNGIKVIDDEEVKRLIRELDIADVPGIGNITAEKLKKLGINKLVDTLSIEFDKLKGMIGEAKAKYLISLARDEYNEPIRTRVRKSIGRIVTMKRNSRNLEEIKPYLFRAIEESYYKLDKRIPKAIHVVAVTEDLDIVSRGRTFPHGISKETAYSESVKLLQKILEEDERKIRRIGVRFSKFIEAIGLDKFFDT
Assay Remarks: Substrate specificity assay
Type: biochemical, Sulfolobus solfataricus
Run Conditions: DNA substrate 21/26-mer-dG^C8-N-ABA (pause site)
Give just the numeric value; M⁻¹ s⁻¹ need not be written.

// (kp/Kd, dNTP)damaged lookup, compound = Cc1cn([C@H]2C[C@H](O)[C@@H](COP(=O)(O)OP(=O)(O)OP(=O)(O)O)O2)c(=O)[nH]c1=O , result: 0.4

// (kp/Kd, dNTP)damaged lookup, compound = Nc1nc2c(ncn2[C@H]2C[C@H](O)[C@@H](COP(=O)(O)OP(=O)(O)OP(=O)(O)O)O2)c(=O)[nH]1 , result: 22

// (kp/Kd, dNTP)damaged lookup, compound = Nc1ccn([C@H]2C[C@H](O)[C@@H](COP(=O)(O)OP(=O)(O)OP(=O)(O)O)O2)c(=O)n1 , result: 2.7

// (kp/Kd, dNTP)damaged lookup, compound = Nc1ncnc2c1ncn2[C@H]1C[C@H](O)[C@@H](COP(=O)(O)OP(=O)(O)OP(=O)(O)O)O1 , result: 1
